Each entry below carries its reported Potency.
Molecular target: Thyrotropin receptor (Homo sapiens) (UniProt P16473)
Sequence (P16473 whole entry, looked up): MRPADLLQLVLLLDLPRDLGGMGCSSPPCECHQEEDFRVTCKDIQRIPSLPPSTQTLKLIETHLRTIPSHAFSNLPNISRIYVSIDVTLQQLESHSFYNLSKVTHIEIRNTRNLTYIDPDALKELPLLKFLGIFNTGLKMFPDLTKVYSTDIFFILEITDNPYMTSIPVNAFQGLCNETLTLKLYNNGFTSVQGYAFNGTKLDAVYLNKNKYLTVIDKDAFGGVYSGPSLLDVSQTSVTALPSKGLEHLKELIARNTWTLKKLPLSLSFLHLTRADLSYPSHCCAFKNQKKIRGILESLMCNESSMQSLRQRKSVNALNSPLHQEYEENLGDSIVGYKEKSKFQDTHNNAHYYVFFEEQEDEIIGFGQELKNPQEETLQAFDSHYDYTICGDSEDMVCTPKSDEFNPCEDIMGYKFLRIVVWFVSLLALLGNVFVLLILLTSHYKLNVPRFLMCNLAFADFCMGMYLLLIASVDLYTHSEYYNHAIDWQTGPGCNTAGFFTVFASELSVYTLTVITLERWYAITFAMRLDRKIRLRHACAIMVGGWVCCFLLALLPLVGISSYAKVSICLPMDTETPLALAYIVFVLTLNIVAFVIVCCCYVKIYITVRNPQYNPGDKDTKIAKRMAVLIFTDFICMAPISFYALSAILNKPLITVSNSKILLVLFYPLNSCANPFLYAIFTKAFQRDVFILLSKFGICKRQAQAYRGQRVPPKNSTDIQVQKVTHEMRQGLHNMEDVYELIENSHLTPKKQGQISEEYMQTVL
Test: qHTS assay to identify small molecule antagonists of the thyroid stimulating hormone receptor (TSHR) signaling pathway (AID 1259385); further: potency means the concentration at half of the fitted maximal effect; nearly all actives have a fitted effect of over 20% in size
Details: TSHR-HEK293 cAMP HTRF, TSH-stimulated antagonist mode; series mostly up to 92.4 µM
Records with an inconclusive call do not appear. Active and inactive are the calls of the source. The call rests on the fitted dose curve.
Property Name: Potency

[[record]]
compound = "CCN(CC)CCOc1ccc(C(O)(Cc2ccc(Cl)cc2)c2ccc(C)cc2)cc1 (stereo not given)"
study_system = "Thyrotropin receptor (Homo sapiens) (UniProt P16473)"
property_name = "Potency"
result = "29.8 µM (active)"

[[record]]
compound = "COc1ccccc1OCCNCC(O)COc1cccc2[nH]c3ccccc3c12 (stereo not given)"
study_system = "Thyrotropin receptor (Homo sapiens) (UniProt P16473)"
property_name = "Potency"
result = "33.5 µM (active)"

[[record]]
compound = "CCCOc1sc(C(=O)N2CCC(c3cc(CN)ccc3F)CC2)c(C)c1Br"
study_system = "Thyrotropin receptor (Homo sapiens) (UniProt P16473)"
property_name = "Potency"
result = "56 µM (active)"

[[record]]
compound = "O=C1NCCN1CCN1CCC(c2cn(-c3ccc(F)cc3)c3ccc(Cl)cc23)CC1"
study_system = "Thyrotropin receptor (Homo sapiens) (UniProt P16473)"
property_name = "Potency"
result = "29.8 µM (active)"

[[record]]
compound = "CN(C)CCCN1c2ccccc2Sc2ccc(C(F)(F)F)cc21"
study_system = "Thyrotropin receptor (Homo sapiens) (UniProt P16473)"
property_name = "Potency"
result = "29.8 µM (active)"


* * *

Test: qHTS assay to identify small molecule agonists of the constitutive androstane receptor (CAR) signaling pathway - cell viability counter screen (AID 1224836); further: nearly all actives have a fitted effect of over 45% in size
Conditions: HepG2-CYP2B6-hCAR viability, CellTiter-Fluor, 23 h, PK11195 added to every well; series mostly up to 92.4 µM
Records with an inconclusive call do not appear. Calls of active or inactive are those of the source. Calls come from the whole dose curve; as a rule, active = well fitted cell-killing curve with a large enough effect in the repeat runs; inconclusive = weak or mixed curves, or effect the other way; inactive = flat fitted curve, though single readings scatter.
Outcome codes: TRUE for active, FALSE for inactive

[[record]]
molecule = "O=C1OC(OC(=O)c2cccnc2Nc2cccc(C(F)(F)F)c2)c2ccccc21 (configuration not stated)"
group = "FALSE"

[[record]]
molecule = "C=CC(=O)OCCC#N"
group = "FALSE"

[[record]]
molecule = "COc1cccc(OC)c1O"
group = "FALSE"

[[record]]
molecule = "OCCCCl"
group = "FALSE"

[[record]]
molecule = "CN1[C@@H]2CC[C@@H]1CC(OC(=O)C(CO)c1ccccc1)C2 (some centres not stated)"
group = "FALSE"

[[record]]
molecule = "CN(C)CCCN1c2ccccc2CCc2ccccc21"
group = "TRUE"

[[record]]
molecule = "CC(C)CCOCCC(C)C"
group = "FALSE"

[[record]]
molecule = "Cc1ccc(CCn2c3c(c4cc(Cl)ccc42)CN(C)CC3)cn1"
group = "FALSE"

[[record]]
molecule = "CCCCCCCOC(=O)c1ccccc1C(=O)OCCCCCCC"
group = "FALSE"

[[record]]
molecule = "Cc1cc(C)c(C=O)c(C)c1"
group = "FALSE"

[[record]]
molecule = "CCN=C1C=CC(=C(c2ccc(N(CC)CC)cc2)c2ccc(N(CC)CC)cc2)c2ccccc21"
group = "TRUE"

[[record]]
molecule = "Cc1ccc(-n2[nH]c(C)c(N=Nc3cccc(-c4cccc(C(=O)O)c4)c3O)c2=O)cc1C"
group = "FALSE"

[[record]]
molecule = "CCc1c(C(=O)O)c(=O)cnn1-c1ccc(Cl)cc1"
group = "FALSE"

[[record]]
molecule = "CCCCCCC(C)Nc1ccc(Nc2ccccc2)cc1 (configuration not stated)"
group = "FALSE"

[[record]]
molecule = "CCCCOC(=O)C(C)CC (configuration not stated)"
group = "FALSE"

[[record]]
molecule = "CC(C)(C)c1n[nH]c(=O)n(N)c1=O"
group = "FALSE"

[[record]]
molecule = "C=CC(=O)OCCN(CC)CC"
group = "FALSE"

[[record]]
molecule = "CCCCC(CC)COC(=O)c1ccc(O)cc1 (configuration not stated)"
group = "FALSE"

[[record]]
molecule = "CC(CN(C)C)CN1c2ccccc2CCc2ccccc21 (configuration not stated)"
group = "FALSE"

[[record]]
molecule = "CCCSS/C(CCO)=C(\\C)N(C=O)Cc1cnc(C)nc1N"
group = "FALSE"

[[record]]
molecule = "O=C(c1ccccc1)c1cc(Cl)ccc1O"
group = "FALSE"

[[record]]
molecule = "O=C1Nc2ccc(Cl)cc2[C@@](C#CC2CC2)(C(F)(F)F)O1"
group = "FALSE"

[[record]]
molecule = "O=S(=O)(O)CCCN1CCOCC1"
group = "FALSE"

[[record]]
molecule = "CCCCCCCCCCCC(=O)N(CC)CC"
group = "FALSE"

[[record]]
molecule = "Clc1ccc(C(Cn2ccnc2)OCc2c(Cl)cccc2Cl)c(Cl)c1 (configuration not stated)"
group = "FALSE"

[[record]]
molecule = "COc1cccc(O)c1"
group = "FALSE"

[[record]]
molecule = "Brc1ccccc1-c1ccccc1"
group = "FALSE"

[[record]]
molecule = "CCO[Si](CCCSSSSCCC[Si](OCC)(OCC)OCC)(OCC)OCC"
group = "FALSE"

[[record]]
molecule = "CCCCNc1c(C(=O)OCC)c(C)nc2c1cnn2CC"
group = "FALSE"

[[record]]
molecule = "Oc1ccc(-c2ccc(O)cc2)cc1"
group = "FALSE"

[[record]]
molecule = "CCCCCCCC(C)=O"
group = "FALSE"

[[record]]
molecule = "NC(=O)C(=O)N/N=C/c1ccc([N+](=O)[O-])o1"
group = "FALSE"

[[record]]
molecule = "Clc1cc(Cl)c(-c2c(Cl)c(Cl)cc(Cl)c2Cl)cc1Cl"
group = "FALSE"

[[record]]
molecule = "Brc1ccccn1"
group = "FALSE"

[[record]]
molecule = "OCCC(O)CO (configuration not stated)"
group = "FALSE"

[[record]]
molecule = "CCCCN(CCCC)CCC(O)c1cc2c(Cl)cc(Cl)cc2c2cc(C(F)(F)F)ccc12 (configuration not stated)"
group = "FALSE"

[[record]]
molecule = "NCCCC(O)(P(=O)(O)O)P(=O)(O)O"
group = "FALSE"

[[record]]
molecule = "CC1(C)COCN1"
group = "FALSE"

[[record]]
molecule = "CC(C)=CCCC(C)O (configuration not stated)"
group = "FALSE"

[[record]]
molecule = "C[C@]12CC[C@H]3C(=CCc4cc(O)ccc43)[C@@H]1CCC2=O"
group = "FALSE"

[[record]]
molecule = "C=C[C@](C)(O)CC[C@@H]1[C@@]2(C)CCCC(C)(C)[C@@H]2CC[C@@]1(C)O"
group = "TRUE"

[[record]]
molecule = "O=C1OC(=O)c2cccc3cccc1c23"
group = "FALSE"

[[record]]
molecule = "CCN(CC)CCOC(=O)C1(C2CCCCC2)CCCCC1"
group = "FALSE"

[[record]]
molecule = "C=C1C(C)(C)[C@@]2(Cl)C(Cl)[C@]1(Cl)C(Cl)(Cl)C2(Cl)Cl (some centres not stated)"
group = "FALSE"

[[record]]
molecule = "NC(=O)c1ccccc1N"
group = "FALSE"

[[record]]
molecule = "CC1(C)C(=O)N(Br)C(=O)N1Br"
group = "FALSE"

[[record]]
molecule = "C=CC(C)C#N (configuration not stated)"
group = "FALSE"

[[record]]
molecule = "CC(C)c1ccc(O)c(C(C)C)c1"
group = "FALSE"

[[record]]
molecule = "Oc1cc2ccccc2cc1O"
group = "FALSE"

[[record]]
molecule = "Clc1cccnc1"
group = "FALSE"

[[record]]
molecule = "CCC(=O)OCCc1ccccc1"
group = "FALSE"

[[record]]
molecule = "CCOC(=O)N1CCC(=C2c3ccc(Cl)cc3CCc3cccnc32)CC1"
group = "FALSE"

[[record]]
molecule = "COC(=O)NCCC[Si](OC)(OC)OC"
group = "FALSE"

[[record]]
molecule = "ClC/C=C\\CCl"
group = "FALSE"

[[record]]
molecule = "CC(C)OC(=O)c1cc(C(=O)OC(C)C)cc([N+](=O)[O-])c1"
group = "FALSE"

[[record]]
molecule = "SCCCCCCCCS"
group = "FALSE"

[[record]]
molecule = "CN1[C@@H]2CC[C@H]1CC(OC(=O)C(CO)c1ccccc1)C2 (some centres not stated)"
group = "FALSE"


* * *

Assay: Human pregnane X receptor (PXR) small molecule agonists, qHTS cell viability counter screen (AID 1346977); further: nearly all actives have a fitted effect of over 50% in size
Conditions: PXR-Luc HepG2 viability, CellTiter-Fluor, 24 h; series mostly up to 92.4 µM
Inconclusive results are not listed. Calls of active or inactive are those of the source. Calls come from the whole dose curve; as a rule, active = well fitted cell-killing curve with a large enough effect in the repeat runs; inconclusive = weak or mixed curves, or effect the other way; inactive = flat fitted curve, though single readings scatter.
Outcome codes: active, inactive

[[record]]
molecule = "CN1CN(C)CN(C)C1"
group = "inactive"

[[record]]
molecule = "CCCCCCC(C)OC(=O)COc1nc(F)c(Cl)c(N)c1Cl (centres undefined)"
group = "inactive"

[[record]]
molecule = "NC(=O)C(=O)N/N=C/c1ccc([N+](=O)[O-])o1"
group = "inactive"

[[record]]
molecule = "CN(Cc1cc(Br)cc(Br)c1N)C1CCCCC1"
group = "inactive"

[[record]]
molecule = "CC(C)CCOCCC(C)C"
group = "inactive"

[[record]]
molecule = "CC(C)=CCCC(C)CCOC(=O)C(C)C (centres undefined)"
group = "inactive"

[[record]]
molecule = "CCCCCCCCCCCCCCNCCO"
group = "inactive"

[[record]]
molecule = "COc1ccccc1C=O"
group = "inactive"

[[record]]
molecule = "CCN(CC)c1cccc(C)c1"
group = "inactive"

[[record]]
molecule = "CSc1c(Cl)c(Cl)c(Cl)c(Cl)c1Cl"
group = "inactive"

[[record]]
molecule = "CC(=O)OC(OC(C)=O)c1ccc([N+](=O)[O-])o1"
group = "active"

[[record]]
molecule = "CN1[C@@H]2CC[C@H]1CC(OC(=O)C(CO)c1ccccc1)C2 (some centres undefined)"
group = "inactive"

[[record]]
molecule = "C#CC(O)CCC (centres undefined)"
group = "inactive"

[[record]]
molecule = "CC1CCCCN1CCCOC(=O)c1ccc(OC2CCCCC2)cc1 (centres undefined)"
group = "inactive"

